system name: Arginase-2, mitochondrial (Homo sapiens) (UniProt P78540)
Sequence (P78540 whole entry): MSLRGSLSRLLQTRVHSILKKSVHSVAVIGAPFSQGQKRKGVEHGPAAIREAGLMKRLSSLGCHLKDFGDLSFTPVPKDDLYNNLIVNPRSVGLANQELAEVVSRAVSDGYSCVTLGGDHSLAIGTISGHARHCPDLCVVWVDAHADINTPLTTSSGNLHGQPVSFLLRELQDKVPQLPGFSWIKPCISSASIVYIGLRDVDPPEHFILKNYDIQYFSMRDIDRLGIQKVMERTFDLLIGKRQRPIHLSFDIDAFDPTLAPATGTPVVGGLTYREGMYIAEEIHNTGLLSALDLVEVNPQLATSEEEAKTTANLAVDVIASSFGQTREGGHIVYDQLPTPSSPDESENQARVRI
assay protocol: in vitro enzyme assay to detect the production of urea directly proportional to the activity of Arginase II
Format: functional
Design: scale not given: in the data most compounds retested in dose-response had high values
experimental context: 33.3 µM
parameter: Percent Effect (%)
// return numeric value only (unit: %, not printed)

Reported Percent Effect ( CC[C@H]1N(C)CCC[C@]12CCC(=O)N2Cc1ccncc1 ) = -1.83

molecule O=C1CC2(CCCNC2)C(=O)N1Cc1ccccc1 (centres undefined) , Percent Effect observed: 0.457

For record Cc1csc(CN2CCC[C@]3(C[C@H](Oc4ccccn4)CO3)C2)n1 the listed Percent Effect is 2.4

Sample CN(Cc1cccnc1)[C@@H]1CN(CC2CC2)[C@@H]2CCCO[C@H]12 ; Percent Effect observed: -57.2

The recorded Percent Effect for entry Cc1n[nH]c2c1C(c1ccsc1)SCC(=O)N2 (centres undefined) equals 0.645

Item: CC(c1ccc(F)cc1)N1CCN(Cc2ccc(C#N)cc2)CC1 (centres undefined) | Percent Effect: -0.401

Looking up O=C(c1cnn2c1OCCC2)N1CCC2(CC1)OCCO2 , I see its Percent Effect listed as -1.94

// Percent Effect value for COc1cc(OC)c(C2SCC(=O)Nc3n[nH]cc32)cc1OC (centres undefined) : -7.1

Notebook: NC[C@H]1[C@H]2CN(Cc3ccccc3)C[C@@H]12 , Percent Effect read as 1.83

What the record says about c1cnc(NC[C@@H]2CCC[C@@H]3CN(Cc4cc[nH]n4)C[C@@H]32)nc1 : Percent Effect is 4.17

Entry COc1ccc(C(=O)C2CCCN(CCCn3cccn3)C2)c(OC)c1 (centres undefined) ; Percent Effect = 25.5

The recorded Percent Effect for O=C(Cc1cccs1)N1C[C@@H]2OCCN(CC3CCCC3)[C@@H]2C1 is -6.79

Memo: CN(C)C(=O)COC[C@H]1CC[C@@H]2[C@@H](CCN2Cc2ccccn2)O1 , reported Percent Effect: 2.5

Percent Effect for O=C(N[C@H]1CN[C@H]2CCCO[C@H]21)c1cscn1 is -1.6

The measurements presented in this section are drawn from ChEMBL document CHEMBL3988442.
